Measured values drawn from ChEMBL document CHEMBL1201862 for this set.

Test system: SNB-75
Test Description: NCI tumour cell line growth inhibition, 48 h
Active and inactive are the calls of the source. No stated cut-off is given here; in the data, active = GI50 up to about 1.1 µM and inactive = higher.
Please answer using one outcome listed in active, inactive

# outcome recorded in this test, key = `CCCCCc1c(Cl)nc(Cl)nc1Cl` active

# outcome recorded in this test, key = C[C@@]1(O)C2CC3CC1(c1ccccc1)CC(/C3=N/O)/C2=N\O (stereo not given in full) inactive

# outcome recorded in this test, key = CC(C)CC(NP(=O)(O)OC1OC(C)C(O)C(O)C1O)C(=O)NC(Cc1c[nH]c2ccccc12)C(=O)O (stereo not given) inactive

# outcome recorded in this test, key = `CN(C)c1n/c(=N/Cc2ccncc2)ss1` inactive

# outcome recorded in this test, key = O=C1OC(c2ccccc2)(c2ccccc2)CC1CN1CCOCC1 (stereo not given) inactive

# outcome recorded in this test, key = `Cn1c2ccccc2n2c3nc4ccccc4nc3c(C#N)c12` inactive

# outcome recorded in this test, key = `CC(=O)O[C@@H]1CN(S(=O)(=O)c2ccc(C)cc2)C[C@@H]1C1CCCCC1` inactive

# outcome recorded in this test, key = `c1ccc(C[N+]23CN4CN(CN(C4)C2)C3)cc1` inactive

# outcome recorded in this test, key = Cc1cc2nn(C3CCCO3)nc2cc1C (stereo not given) inactive

# outcome recorded in this test, key = CC(C)=CC(O)C/C(C)=C/CC/C(C)=C/CCC1(C)C(CCCO)/C(=C(/C)C=O)CCC1(C)O (stereo not given) inactive

# outcome recorded in this test, key = CC(C)OC(=O)C1(C(C)C)CCc2ccc(C(=O)CCC(=O)O)cc21 (stereo not given) inactive

# outcome recorded in this test, key = CNC(=O)C1OC(n2cnc3c(NCc4cccc(I)c4)nc(Cl)nc32)C(O)C1O (stereo not given) active

# outcome recorded in this test, key = `CCCCC(=O)OC[n+]1ccc(-c2c(COC(=O)NC(C)C)c(COC(=O)NC(C)C)c3n2CCC3)cc1` inactive

# outcome recorded in this test, key = O=C1NC2(CCCCC2)C2CCCCC=C12 (stereo not given) inactive

# outcome recorded in this test, key = `S=C(N/N=C\C=N/NC(=S)N1CCCCCC1)N1CCCCCC1` inactive

# outcome recorded in this test, key = `Cc1nc2ccccc2c(=O)n1NC(=O)c1ccc(N)cc1` inactive

# outcome recorded in this test, key = `Cc1cccc(Cl)c1NC(=O)/C=C/c1ccccc1` inactive

# outcome recorded in this test, key = `CC(=O)n1ccc2c(Cl)ncnc21` active

# outcome recorded in this test, key = C=C(CN(C)C)C(=O)c1ccc(OC2OC(COC(C)=O)C(OC(C)=O)C(OC(C)=O)C2OC(C)=O)cc1 (stereo not given) inactive

# outcome recorded in this test, key = CC(C)(C)OC(=O)NC(Cc1c[nH]cn1)C(=O)N1CCCC1C(N)=O (stereo not given) inactive

# outcome recorded in this test, key = Cc1ccc(NC(=O)C(=O)C(C(=O)c2ccc3ccccc3c2)C2OC(=O)c3ccccc32)c(C)c1 (stereo not given) inactive

# outcome recorded in this test, key = `COc1cc(/C=C2\N=C(c3ccccc3)N(c3nc4c(OC)ccc(OC)c4s3)C2=O)cc(OC)c1OC` inactive

# outcome recorded in this test, key = `COc1ccc(-c2oc(/C=N/NC(N)=S)c([N+](=O)[O-])c2-c2ccc(OC)c(OC)c2)cc1OC` inactive

# outcome recorded in this test, key = CC(=O)OC/C=C(/CCl)CCC(Br)C(C)(C)Br.CC(=O)OC/C=C(\CCl)CCC(Br)C(C)(C)Br (stereo not given) inactive

# outcome recorded in this test, key = `CCCCc1c2c(nc3c1CC/C(=C\c1ccc([N+](=O)[O-])cc1)C3=O)CCCC2` inactive
